- Tested on: K562
- Assay procedure: In vitro inhibitory activity against K562 leukemia cells in the presence of pd2
- Assay type: functional, cell-based
- Protocol conditions: Homo sapiens
Outcome measure: pIC50
Give only the number. pIC50 is defined as minus log10 of concentration in molar units.

Q: # query: pIC50 of entry CO[C@@]12[C@H](COC(N)=O)C3=C(C(=O)C(C)=C(N)C3=O)N1C[C@@H]1N[C@@H]12 [MITOMYCIN]
Ans: 7.80
